target: NS3 protease (MBP-NS34a) (Hepatitis C virus genotype 1b); construct: (including 979th to 1710th amino acids); made in house; host or cells: Escherichia coli XL2-Blue; assay: NS3 protease inhibitory activity test using substrate cleavage reaction as index; type: biochemical, human hepatitis C virus; conditions: method of Example 3 <1>; read-out: NS3 protease activity IC50 value
Sequence (P26662 979-1710): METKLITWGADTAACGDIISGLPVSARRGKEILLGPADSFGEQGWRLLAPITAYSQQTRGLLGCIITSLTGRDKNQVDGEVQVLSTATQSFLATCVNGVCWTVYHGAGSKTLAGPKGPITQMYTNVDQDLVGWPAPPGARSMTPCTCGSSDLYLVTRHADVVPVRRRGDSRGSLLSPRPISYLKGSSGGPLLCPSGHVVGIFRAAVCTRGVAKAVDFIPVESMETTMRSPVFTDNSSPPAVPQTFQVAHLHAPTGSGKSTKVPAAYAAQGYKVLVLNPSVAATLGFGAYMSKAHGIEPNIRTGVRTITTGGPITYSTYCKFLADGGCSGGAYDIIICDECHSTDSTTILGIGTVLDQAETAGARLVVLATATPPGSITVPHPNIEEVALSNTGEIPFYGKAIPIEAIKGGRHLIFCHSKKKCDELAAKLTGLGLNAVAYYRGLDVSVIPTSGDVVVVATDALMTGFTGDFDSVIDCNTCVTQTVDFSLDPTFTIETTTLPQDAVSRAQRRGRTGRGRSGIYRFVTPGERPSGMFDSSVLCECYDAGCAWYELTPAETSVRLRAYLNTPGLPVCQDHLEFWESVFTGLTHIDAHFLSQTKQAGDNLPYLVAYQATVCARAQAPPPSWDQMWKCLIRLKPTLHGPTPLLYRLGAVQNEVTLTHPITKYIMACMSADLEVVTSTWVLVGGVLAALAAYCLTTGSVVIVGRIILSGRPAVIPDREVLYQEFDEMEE
QUANTITY KIND: pIC50
Please treat pIC50 as minus the base-10 logarithm of the molar concentration.

Q. Entry O=C(Nc1ccc(Oc2c(Cl)cc(Cl)cc2Cl)cc1)c1cc(Cl)ccc1NS(=O)(=O)c1ccc2ccccc2c1 [HCP1271] , system NS3 protease (MBP-NS34a) (Hepatitis C virus genotype 1b): what pIC50 was measured?
A. 5.66
